# protocol_description: Confirmation screen for delayed death inhibitors of the malarial parasite plastid, 96 hour incubation; also: nearly all actives have a fitted effect of over 60% in size
# condition_summary: P. falciparum luciferase growth in erythrocytes; series mostly up to 28.7 µM
Screen size: about 2,300 compounds; about 1,400 (61%) were called active. About 29% were inconclusive and are not listed. Calls follow the shape of the dose curve; as a rule, active = well fitted inhibition curve with a large enough effect; inconclusive = small, poorly fitted or top-dose-only effect, or effect the other way; inactive = no such curve, though single readings can be large or run the other way. So high a share suggests a set chosen from earlier hits. The list shows a part of the results.
Can you answer with just one of these options? active, inactive

compound: OC1C2(Cc3ccccc3)CN3CCN(C2)CC1(Cc1ccccc1)C3 (configuration not stated)
qualitative_label: active
//
compound: O=C(OCC(=O)N1CCN(c2ccccc2)CC1)c1cc(Cl)ccc1[N+](=O)[O-]
qualitative_label: inactive
//
compound: CCOC(=O)c1c(-c2ccc(-c3ccccc3)cc2)csc1NC(=O)c1cccc(N2C(=O)CCC2=O)c1
qualitative_label: active
//
compound: COc1ccc(-c2cc(-c3ccccc3)nc(SCC(=O)Nc3nccs3)c2C#N)cc1
qualitative_label: active
//
compound: CCOC(=O)c1c(-c2cccc(C)c2)csc1NC(=O)c1c(-c2ccccc2)noc1C
qualitative_label: active

Req: Any idea what this test logged for CSc1ccc(C2c3[nH]c4ccccc4c3CCN2C(=O)c2ccnn2C)cc1 (configuration not stated) ?
Resp: active

Req: Any idea what this test logged for `CCCSc1sc(C(=O)OC)c(-c2cccs2)c1C#N` ?
Resp: inactive

Req: Any idea what this test logged for `CCOC(=O)CN1C(=O)/C(=C/c2c(F)cccc2Cl)Oc2ccccc21` ?
Resp: active

Req: Any idea what this test logged for `Cc1cc(=O)nc2c3ccccc3n(CC(=O)NCCC3=CCCCC3)n12` ?
Resp: active

Req: Any idea what this test logged for `CCOc1ccc(Cl)cc1C1=CC(=O)C[C@H](c2ccc(OC)cc2)C1` ?
Resp: active

Req: Any idea what this test logged for `S=c1[nH]nc(-c2ccccc2)n1/N=C/c1ccc(-c2ccccc2Cl)o1` ?
Resp: inactive

Req: Any idea what this test logged for Cn1nccc1C(=O)N1CCc2c([nH]c3ccccc23)C1c1ccc(F)cc1 (configuration not stated) ?
Resp: active

Req: Any idea what this test logged for NC(=O)CC(NC(=O)c1ccccc1)c1ccc(N2CCN(c3ccccc3)CC2)c([N+](=O)[O-])c1 (configuration not stated) ?
Resp: active

###

# protocol_description: Confirmation screen for delayed death inhibitors of the malarial parasite plastid, 96 hour incubation; also: nearly all actives have a fitted effect of over 60% in size
# condition_summary: P. falciparum luciferase growth in erythrocytes; series mostly up to 28.7 µM
Hit rate of the full screen: of about 2,300 compounds, about 1,400 (61%) were called active. About 29% were inconclusive and are not listed. Calls come from the whole dose curve; as a rule, active = well fitted inhibition curve with a large enough effect; inconclusive = small, poorly fitted or top-dose-only effect, or effect the other way; inactive = no such curve, though single readings can be large or run the other way. The set was probably picked from earlier hits. Some of the results follow.
Can you answer with just one of these options? 1.0 for active, 0.0 for inactive

Answered examples (2):
compound: N#Cc1cc(S(=O)(=O)c2ccccc2)c(N)[nH]c1=O
qualitative_label: 0.0
//
compound: CCCCCCn1c(SCCC)nc2c1c(=O)[nH]c(=O)n2C
qualitative_label: 1.0

Req: Any idea what this test logged for COc1ccc(C2CC(=O)C3=C(C2)Nc2ccccc2NC3c2coc3ccccc3c2=O)cc1OC (stereo not drawn) ?
Resp: 1.0

Req: Any idea what this test logged for `O=C(NC1CCCCC1)N1CCN(c2ccc([N+](=O)[O-])cc2)CC1` ?
Resp: 1.0

Req: Any idea what this test logged for `COc1ccc(NS(=O)(=O)c2cc(OCC(N)=O)c(C)cc2Cl)cc1` ?
Resp: 1.0

Req: Any idea what this test logged for `O=C(CCN1C(=O)/C(=C/c2ccccc2)SC1=S)NCCc1ccc(O)cc1` ?
Resp: 0.0

Req: Any idea what this test logged for `Cc1cccc(OCC(=O)NNc2c3ccccc3nc3ccccc23)c1` ?
Resp: 1.0

Req: Any idea what this test logged for COC(=O)c1ccc(C2N=C(c3cccs3)CC(c3ccccc3O)N2)cc1 (stereo not drawn) ?
Resp: 1.0

Req: Any idea what this test logged for `COc1cccc(C(=O)NNc2c3ccccc3nc3ccccc23)c1` ?
Resp: 1.0

Req: Any idea what this test logged for `CCOc1ccc(CCn2c(-c3ccco3)nc3ccccc3c2=O)cc1OCC` ?
Resp: 1.0

Req: Any idea what this test logged for `CC(C)c1ccc2[nH]c(O)c(N=NC(=O)c3ccc(CSc4nncn4C)cc3)c2c1` ?
Resp: 1.0

Req: Any idea what this test logged for COc1ccccc1CNC(=O)CN1C(=O)NC(c2ccccc2)(c2ccc(C)c(C)c2)C1=O (stereo not drawn) ?
Resp: 1.0

Req: Any idea what this test logged for `Nc1nc(CCl)nc(N(c2ccccc2)c2ccccc2)n1` ?
Resp: 1.0

Req: Any idea what this test logged for `Cn1c(=O)[nH]c(=O)c2c1nc(SCCN1CCCCC1)n2CCCc1ccccc1` ?
Resp: 1.0

Req: Any idea what this test logged for `CCCn1c(CN2CCN(C(=O)OCC)CC2)nc2cc(NC(=O)C(C)C)ccc21` ?
Resp: 1.0

###

# protocol_description: Confirmation screen for delayed death inhibitors of the malarial parasite plastid, 96 hour incubation; also: nearly all actives have a fitted effect of over 60% in size
# condition_summary: P. falciparum luciferase growth in erythrocytes; series mostly up to 28.7 µM
Out of some 2,300 compounds screened, about 1,400 (61%) were called active. Another 29% or so got no clear call; they are omitted. Calls come from the whole dose curve; as a rule, active = well fitted inhibition curve with a large enough effect; inconclusive = small, poorly fitted or top-dose-only effect, or effect the other way; inactive = no such curve, though single readings can be large or run the other way. So high a share suggests a set chosen from earlier hits. The list shows a part of the results.
Can you answer with just one of these options? active, inactive

compound: O=C(NC1CC1)C1=C[C@@H](C2CCCCC2)C[C@@H](OCc2ccc(CO)cc2)O1
qualitative_label: active

Req: Any idea what this test logged for `O=c1oc2ccccc2c(O)c1CN1CCCCC1` ?
Resp: inactive

Req: Any idea what this test logged for `COc1ccc(CN2CCN(C(=O)CCC(=O)Nc3nnc(C4CCCCC4)s3)CC2)cc1F` ?
Resp: active

Req: Any idea what this test logged for O=C(Nc1ccccc1SCC1CSc2nc3ccccc3c(=O)n21)c1ccccc1Cl (configuration not stated) ?
Resp: active

###

# protocol_description: Confirmation screen for delayed death inhibitors of the malarial parasite plastid, 96 hour incubation; also: nearly all actives have a fitted effect of over 60% in size
# condition_summary: P. falciparum luciferase growth in erythrocytes; series mostly up to 28.7 µM
Screen size: about 2,300 compounds; about 1,400 (61%) were called active. Roughly 29% stayed inconclusive and do not appear here. The call rests on the fitted dose curve; in most records, active means well fitted inhibition curve with a large enough effect; inconclusive means small, poorly fitted or top-dose-only effect, or effect the other way; inactive means no such curve, though single readings can be large or run the other way. So high a share suggests a set chosen from earlier hits. The list shows a part of the results.
Can you answer with just one of these options? TRUE = active, FALSE = inactive

molecule: O=C(CCl)NCCN1C(=O)S/C(=C\c2cccnc2)C1=O
qualitative_label: TRUE
//
molecule: CCOC(=O)Cn1nnnc1C(CC)N(Cc1cccs1)Cc1cc2ccc(OC)cc2[nH]c1=O (stereo unspecified)
qualitative_label: TRUE
//
molecule: Cc1cc(C)c(OCC(O)CNC(C)(C)C)c(C)c1 (stereo unspecified)
qualitative_label: TRUE

Req: Any idea what this test logged for `COc1cc(/C=C2/CCC/C(=C\c3cc(O)c(OC)c(Cl)c3)C2=O)cc(Cl)c1O` ?
Resp: TRUE

Req: Any idea what this test logged for `N=C(N)c1ccc(/C=C/c2ccc(C(=N)N)cc2O)cc1` ?
Resp: TRUE

###

# protocol_description: Confirmation screen for delayed death inhibitors of the malarial parasite plastid, 96 hour incubation; also: nearly all actives have a fitted effect of over 60% in size
# condition_summary: P. falciparum luciferase growth in erythrocytes; series mostly up to 28.7 µM
Among all 2,300 compounds or so, about 1,400 (61%) were called active. Roughly 29% stayed inconclusive and do not appear here. Calls come from the whole dose curve; as a rule, active = well fitted inhibition curve with a large enough effect; inconclusive = small, poorly fitted or top-dose-only effect, or effect the other way; inactive = no such curve, though single readings can be large or run the other way. The set was probably picked from earlier hits. Some of the results follow.
Can you answer with just one of these options? active, inactive

Answered examples (6):
compound: COc1cc2c(cc1NC(=O)c1ccc(C(C)(C)C)cc1)CCCC2
qualitative_label: active
--
compound: COc1ccc(C#Cc2ccc3c(=O)c4ccccc4n(C)c3c2)cc1
qualitative_label: active
--
compound: CCN(C(=O)c1cc2c(=O)n3ccccc3nc2n1CCCOC)C1CCCCC1
qualitative_label: active
--
compound: CCOc1ccccc1CN1CCN(Cc2ccc3cccc(OC)c3n2)CC1CCO (configuration not stated)
qualitative_label: active
--
compound: Cn1c2ccccc2c(=O)c2ccc(C#Cc3ccc(N)cc3)cc21
qualitative_label: active
--
compound: CCOc1ccc(CN2CCN(Cc3ccc4cc(F)ccc4n3)CC2CCO)cc1 (configuration not stated)
qualitative_label: active

Req: Any idea what this test logged for `Cc1ccc(CNC(=O)COc2ccccc2-c2ccccc2)cc1` ?
Resp: active

Req: Any idea what this test logged for `Cc1cc(=O)oc2ccc(OCC(=O)N3CCc4ccccc43)cc12` ?
Resp: active

###

# protocol_description: Confirmation screen for delayed death inhibitors of the malarial parasite plastid, 96 hour incubation; also: nearly all actives have a fitted effect of over 60% in size; also: potency is read from the fitted curve at half-maximal effect
# condition_summary: P. falciparum luciferase growth in erythrocytes; series mostly up to 28.7 µM
The whole screen tested about 2,300 compounds, of which about 1,400 (61%) were called active. About 29% were inconclusive and are not listed. So high a share suggests a set chosen from earlier hits. Some of the results follow.
The following molecules are shown together with reported Potency values.

molecule: COc1cc2c(cc1OC)-c1cc(N3CCc4ccccc43)nc(=O)n1CC2
Potency: 5.01 µM (active)
--
molecule: COC(=O)CCC(=O)OC1(C)C(=O)C=C2C=C(C3CC3)N(CCCOC(C)C)C=C2C1=O (centres undefined)
Potency: 1.12 µM (active)
--
molecule: CC(C)C[C@H](NC(=O)c1[nH]cnc1C(=O)Nc1ccc(CNC(=O)OC(C)(C)C)cc1)C(=O)OC(C)(C)C
Potency: 4.47 µM (active)
--
molecule: Cc1ccc(OCCn2cc(C(=S)N3CCCC3)c3ccccc32)cc1C
Potency: 14.1 µM (active)
--
molecule: CC(C)C[C@H](NC(=O)c1nc[nH]c1C(=O)N(C)Cc1ccccc1)C(=O)OC(C)(C)C
Potency: 10 µM (active)
--
molecule: COc1ccc(C(=O)NC2CCCc3c2cnn3-c2cccc(C)c2C)o1 (centres undefined)
Potency: 12.6 µM (active)
--
molecule: CC(C)C[C@H](NC(=O)c1[nH]cnc1C(=O)N[C@@H](C)C(=O)OC(C)(C)C)C(=O)OC(C)(C)C
Potency: 10 µM (active)

The reported Potency of the molecule `CC(C)C[C@H](NC(=O)c1[nH]cnc1C(=O)N[C@@H](Cc1ccccc1)C(=O)OC(C)(C)C)C(=O)OC(C)(C)C` was 6.31 µM (active)

Where do the numbers come from? From PubChem BioAssay AID504848.
